Target: T1, human serum albumin (human, UniProt P02768 25-609)
T1 construct: also called HSA
Test: SPR (Biacore T100), periplasmic extracts over immobilized human serum albumin

Binder: 4B8 (VHH, Tested as periplasmic extract) VHH: EVQLVESGGGLVQAGGSLRLSCAASGGTYSGNAMAWFRQAPGKEREFVAGIDWSSENTRYIDSVKGRFTISRDNAKNTMYLQMNSLKPEDTAVYYCAAGTSWGALASRLEAAYSSWGQGTQVTVSS
binding result: binds
--
Binder: 4B5 (VHH, Tested as periplasmic extract) VHH: EVQLVESGGGLVQAGDSLRLSCAASGRTYSRNAMAWFRQAPGKEREFVAGIDWSSENTRYIDSVKGRFTISRDNAKSTMYLQMNSLKPEDTAVYYCAAGTSWGALASRLEAAYSSWGQGTQVTVSS
binding result: binds
